Test: Clinical study in healthy adult subjects, pharmacokinetics
Assay type: in vivo, human
Conditions: human, plasma, oral, 10 mg, 10 mg Q24 h, Day 14; mean (% CV); read-out: Cmax
assayEndpoint: Cmax

Return reported Cmax. Input molecule: C[C@H](Nc1ncnc2[nH]cnc12)c1cc2cccc(Cl)c2c(=O)n1-c1ccccc1
605 ng/mL

* * *

pIC50: −log10 of the molar value.
The following compounds each carry a recorded pIC50 for PI3K δ (Homo sapiens, UniProt O00329).

Completed entries (count: 5):
[
  {
    "compound": "COCc1nn(Cc2cc3cccc(C)c3c(=O)n2-c2ccccc2C)c2ncnc(N)c12",
    "pIC50": "< 5.00"
  },
  {
    "compound": "CC(=O)Nc1nc2ccc(-c3nn(Cc4cc5cccc(C)c5c(=O)n4-c4ccccc4)c4ncnc(N)c34)cc2o1",
    "pIC50": "> 6.00"
  },
  {
    "compound": "CC(C)n1c(Cn2nc(I)c3c(N)ncnc32)cc2cccc(F)c2c1=O",
    "pIC50": "> 5.00"
  },
  {
    "compound": "Cc1cccc2cc([C@H](C)Nc3nc(N)ncc3F)n(C3CC3)c(=O)c12",
    "pIC50": "> 5.00"
  },
  {
    "compound": "Cc1cccc2cc(Cn3nc(C#CC4CC4)c4c(N)ncnc43)n(-c3ccccc3F)c(=O)c12",
    "pIC50": "> 6.00"
  }
]

Find pIC50 for Cc1cccc2cc(C(C)Nc3ncnc4[nH]cnc34)n(CCN3CCOCC3)c(=O)c12 (centres unmarked) on PI3K δ (Homo sapiens, UniProt O00329) and write it down.
Sequence (O00329 whole entry, one chain of several): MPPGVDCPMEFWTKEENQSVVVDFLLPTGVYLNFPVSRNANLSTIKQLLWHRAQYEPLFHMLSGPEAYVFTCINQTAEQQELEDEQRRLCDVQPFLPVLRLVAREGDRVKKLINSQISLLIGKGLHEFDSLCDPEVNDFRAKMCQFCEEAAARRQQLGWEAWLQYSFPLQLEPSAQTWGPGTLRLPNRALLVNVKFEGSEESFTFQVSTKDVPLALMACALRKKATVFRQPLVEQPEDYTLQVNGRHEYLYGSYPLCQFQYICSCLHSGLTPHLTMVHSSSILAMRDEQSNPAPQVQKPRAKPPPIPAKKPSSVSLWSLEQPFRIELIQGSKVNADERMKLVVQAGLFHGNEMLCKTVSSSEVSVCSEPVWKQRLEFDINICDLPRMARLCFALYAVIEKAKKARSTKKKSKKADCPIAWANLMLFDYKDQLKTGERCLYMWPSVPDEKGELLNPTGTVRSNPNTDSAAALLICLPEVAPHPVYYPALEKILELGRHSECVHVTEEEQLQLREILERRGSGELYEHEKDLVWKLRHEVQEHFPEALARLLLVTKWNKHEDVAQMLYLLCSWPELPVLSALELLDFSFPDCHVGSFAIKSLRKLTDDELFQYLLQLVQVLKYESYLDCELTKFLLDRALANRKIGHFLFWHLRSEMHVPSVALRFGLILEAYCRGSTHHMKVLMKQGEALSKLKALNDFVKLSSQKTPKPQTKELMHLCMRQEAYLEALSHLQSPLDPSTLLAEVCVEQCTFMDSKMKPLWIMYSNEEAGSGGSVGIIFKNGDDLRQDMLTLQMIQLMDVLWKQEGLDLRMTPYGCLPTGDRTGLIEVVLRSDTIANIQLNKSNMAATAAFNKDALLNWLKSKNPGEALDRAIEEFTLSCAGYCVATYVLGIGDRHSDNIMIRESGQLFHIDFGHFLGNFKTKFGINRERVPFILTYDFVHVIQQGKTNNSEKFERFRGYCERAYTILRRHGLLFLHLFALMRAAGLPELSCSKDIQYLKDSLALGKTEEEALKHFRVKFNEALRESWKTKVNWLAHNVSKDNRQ
> 7.00

Param request: pIC50 | system PI3K δ (Homo sapiens, UniProt O00329) | item Cc1cccc2cc(Cn3nc(-c4cccc(O)c4)c4c(N)ncnc43)n(C3CC3)c(=O)c12
> 7.00

Report value only: pIC50, PI3K δ (Homo sapiens, UniProt O00329), Cc1cccc2cc([C@H](C)Nc3cc(N)nc(N)n3)n(C3CC3)c(=O)c12
> 5.00

* * *

Assay: Pharmacokinetics, dog
Assay type: in vivo, Beagle dogs
Conditions: beagle, in vivo, iv, 0.5 mg/kg
assayEndpoint: AUC(0-inf) (ng·h/mL)
Express your answer in ng·h/mL, writing the number without its unit.

# return recorded AUC(0-inf) for input C[C@H](Nc1ncnc2[nH]cnc12)c1cc2cccc(Cl)c2c(=O)n1-c1ccccc1
11900

* * *

Assay: Clinical study in healthy adult subjects, pharmacokinetics
Format: in vivo, human
Details: human, plasma, oral, 1 mg, 1 mg Q12 h, Day 14; mean (% CV)
assayEndpoint: half-life (min)
Answer with a number only, understood to be in min.

Indicate its recorded half-life; the compound in question is C[C@H](Nc1ncnc2[nH]cnc12)c1cc2cccc(Cl)c2c(=O)n1-c1ccccc1
388

* * *

As an illustration, consider measured pIC50 for compounds on PI3K α (Homo sapiens, UniProt P42336).
Sequence (P42336 whole entry): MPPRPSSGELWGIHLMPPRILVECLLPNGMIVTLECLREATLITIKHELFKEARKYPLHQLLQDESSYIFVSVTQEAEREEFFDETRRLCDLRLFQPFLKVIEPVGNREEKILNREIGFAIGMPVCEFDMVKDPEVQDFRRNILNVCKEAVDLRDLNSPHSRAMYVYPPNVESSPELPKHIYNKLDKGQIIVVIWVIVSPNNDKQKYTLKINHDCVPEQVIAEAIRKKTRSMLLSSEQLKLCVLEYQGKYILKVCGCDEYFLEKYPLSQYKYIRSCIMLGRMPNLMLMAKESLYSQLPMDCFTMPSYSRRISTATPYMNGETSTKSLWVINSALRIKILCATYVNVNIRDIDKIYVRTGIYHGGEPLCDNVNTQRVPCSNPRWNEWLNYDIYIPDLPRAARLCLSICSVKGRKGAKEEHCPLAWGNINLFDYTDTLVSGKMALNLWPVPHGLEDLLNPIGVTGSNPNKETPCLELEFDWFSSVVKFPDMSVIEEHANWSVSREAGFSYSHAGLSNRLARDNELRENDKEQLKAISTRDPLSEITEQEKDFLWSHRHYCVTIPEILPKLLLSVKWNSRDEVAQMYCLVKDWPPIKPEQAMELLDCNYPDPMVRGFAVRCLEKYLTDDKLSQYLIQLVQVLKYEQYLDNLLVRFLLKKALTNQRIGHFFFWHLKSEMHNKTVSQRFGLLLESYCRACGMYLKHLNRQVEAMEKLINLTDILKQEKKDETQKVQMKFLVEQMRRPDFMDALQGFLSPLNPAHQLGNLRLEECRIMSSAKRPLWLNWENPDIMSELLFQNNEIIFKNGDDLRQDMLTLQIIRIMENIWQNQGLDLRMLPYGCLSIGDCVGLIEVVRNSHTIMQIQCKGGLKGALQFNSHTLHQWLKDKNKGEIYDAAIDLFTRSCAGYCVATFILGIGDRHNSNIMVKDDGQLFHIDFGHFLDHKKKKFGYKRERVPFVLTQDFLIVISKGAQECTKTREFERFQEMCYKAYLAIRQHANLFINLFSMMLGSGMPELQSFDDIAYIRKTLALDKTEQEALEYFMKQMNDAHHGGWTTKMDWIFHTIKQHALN
Sequence (P27986 whole entry partner): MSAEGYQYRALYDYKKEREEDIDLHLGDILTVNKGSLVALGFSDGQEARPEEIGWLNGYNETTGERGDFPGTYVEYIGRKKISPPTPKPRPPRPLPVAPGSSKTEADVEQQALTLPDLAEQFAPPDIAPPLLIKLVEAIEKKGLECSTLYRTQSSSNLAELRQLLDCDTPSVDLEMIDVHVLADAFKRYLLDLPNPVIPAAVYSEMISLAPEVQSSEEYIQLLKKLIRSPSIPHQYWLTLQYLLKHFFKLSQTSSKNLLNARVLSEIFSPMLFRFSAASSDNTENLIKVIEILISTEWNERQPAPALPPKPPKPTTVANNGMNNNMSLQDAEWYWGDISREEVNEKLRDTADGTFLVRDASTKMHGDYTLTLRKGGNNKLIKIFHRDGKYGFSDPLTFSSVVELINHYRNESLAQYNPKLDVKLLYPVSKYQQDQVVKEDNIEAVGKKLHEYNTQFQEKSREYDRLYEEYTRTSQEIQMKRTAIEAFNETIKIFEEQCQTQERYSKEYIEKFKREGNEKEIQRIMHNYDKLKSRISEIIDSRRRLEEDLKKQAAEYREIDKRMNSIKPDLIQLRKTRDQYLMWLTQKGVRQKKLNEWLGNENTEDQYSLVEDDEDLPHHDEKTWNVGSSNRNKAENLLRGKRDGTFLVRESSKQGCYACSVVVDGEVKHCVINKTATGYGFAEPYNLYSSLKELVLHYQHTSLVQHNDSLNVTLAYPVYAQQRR
pIC50: −log10 of the molar value.

Some compounds with recorded pIC50:
[
  {
    "compound": "Cc1ccccc1-n1c(Cn2nc(-c3cc(O)cc(F)c3)c3c(N)ncnc32)cc2cccc(C)c2c1=O [Compound 7]",
    "pIC50": "> 5.00"
  },
  {
    "compound": "CCc1ccccc1-n1c(Cn2nc(C#C[C@@H](C)O)c3c(N)ncnc32)cc2cccc(C)c2c1=O [Compound 99]",
    "pIC50": "< 5.00"
  },
  {
    "compound": "Cc1cccc2cc(Cn3nc(-c4ccc5oc(N)nc5c4)c4c(N)ncnc43)n(C3CCC3)c(=O)c12 [Compound 208]",
    "pIC50": "> 6.00"
  },
  {
    "compound": "Cc1cccc2cc(Cn3nc(-c4cn[nH]c4)c4c(N)ncnc43)n(-c3ccccc3Cl)c(=O)c12 [Compound 188]",
    "pIC50": "< 5.00"
  },
  {
    "compound": "Cc1ccccc1-n1c(Cn2nc(-c3ccc4cc[nH]c4c3)c3c(N)ncnc32)cc2cccc(C)c2c1=O [Compound 50]",
    "pIC50": "< 5.00"
  },
  {
    "compound": "CC(=O)c1nn(Cc2cc3cccc(C)c3c(=O)n2-c2ccccc2)c2ncnc(N)c12 [Compound 319]",
    "pIC50": "< 5.00"
  }
]

Attention now shifts to the item below.
Using PI3K α (Homo sapiens, UniProt P42336) as the test system, report measured pIC50 of Cc1cccc2cc([C@H](C)Nc3ncnc4[nH]cc(C#N)c34)n(C3CC3)c(=O)c12 [Compound 289] .
> 6.00
